Biological target: ERα (Homo sapiens, UniProt P03372)
Sequence (P03372 1-595): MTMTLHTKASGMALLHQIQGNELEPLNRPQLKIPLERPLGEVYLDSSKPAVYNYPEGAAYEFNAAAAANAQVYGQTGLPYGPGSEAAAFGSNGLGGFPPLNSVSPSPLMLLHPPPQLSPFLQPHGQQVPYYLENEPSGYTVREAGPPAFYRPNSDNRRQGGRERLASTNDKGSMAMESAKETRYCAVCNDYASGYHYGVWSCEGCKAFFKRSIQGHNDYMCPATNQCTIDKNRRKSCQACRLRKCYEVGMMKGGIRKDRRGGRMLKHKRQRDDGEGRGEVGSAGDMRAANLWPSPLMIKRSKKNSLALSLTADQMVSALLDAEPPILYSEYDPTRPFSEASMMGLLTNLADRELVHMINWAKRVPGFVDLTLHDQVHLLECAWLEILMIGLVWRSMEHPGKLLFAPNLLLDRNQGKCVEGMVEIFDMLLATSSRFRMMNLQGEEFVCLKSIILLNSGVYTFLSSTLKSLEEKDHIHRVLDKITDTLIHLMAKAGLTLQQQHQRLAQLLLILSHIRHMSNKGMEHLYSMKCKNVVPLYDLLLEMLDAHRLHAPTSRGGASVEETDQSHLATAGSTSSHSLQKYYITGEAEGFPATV
Assay: Fluorescence polarization assay: displacement of rhodamine-labeled peptide D22 from estradiol-activated ER
Format: binding
Set-up: purchased Invitrogen
Conditions: Table 1 left column; ERα 75 nM, 17β-estradiol 2 μM, D22 1 nM
ENDPOINT: pKi
For clarity, pKi is expressed as the negative log10 of concentration in mol/L.

Memo: `CC(C)Cc1cc(-c2c(CC(C)C)cc(O)c(=O)n2CC(C)C)ccn1` , reported pKi: 4.47

Source listed as patent US8084471B2.
